# Tested on: KK-Ay mice
# protocol-text: High-fat diet fed KK-Ay mice treated 14 days (liver histology, metabolic parameters, GTT, ITT)
# Assay type: in vivo
# experimental-setup: KK-Ay mice, 1.3 mg/kg i.p. 14 days

compound: CCC(C)C1OC2(C=CC1C)CC1CC(CC=C(C)C(OC3CC(OC)C(OC4CC(OC)C(O)C(C)O4)C(C)O3)C(C)C=CC=C3COC4C(O)C(C)=CC(C(=O)O1)C34O)O2 (stereo not shown) [abamectin]
serum triglyceride level: significantly decreased

compound: CO[C@H]1C[C@H](O[C@H]2[C@H](C)O[C@@H](O[C@@H]3/C(C)=C/C[C@@H]4C[C@@H](C[C@]5(C=C[C@H](C)[C@@H](C6CCCCC6)O5)O4)OC(=O)[C@@H]4C=C(C)[C@@H](O)[C@H]5OC/C(=C\C=C\[C@@H]3C)[C@]54O)C[C@@H]2OC)O[C@@H](C)[C@@H]1O [doramectin]
serum triglyceride level: significantly decreased

compound: CCC(C)C1OC2(CCC1C)CC1CC(CC=C(C)C(OC3CC(OC)C(OC4CC(OC)C(O)C(C)O4)C(C)O3)C(C)C=CC=C3COC4C(O)C(C)=CC(C(=O)O1)C34O)O2 (stereo not shown) [ivermectin]
serum triglyceride level: significantly decreased
